conditionDetails: in cyclohexane, 281.15 K
measuredAttribute: solubility (mole fraction)
Please state the value as a number alone, without comment.

Item under review: Cc1nc(CCl)nc2ccccc12 . Reported solubility (mole fraction)? 0.0193

====

conditionDetails: in THF, 291.15 K
measuredAttribute: solubility (mole fraction)
Form: value (number only, do not type unit).

Look up solubility (mole fraction): Cc1nc(CCl)nc2ccccc12 0.297

====

conditionDetails: in ethyl acetate, 311.15 K
measuredAttribute: solubility (mole fraction)
API note: the answer field is a bare number with no unit suffix.

Entry Cc1nc(CCl)nc2ccccc12 : reported solubility (mole fraction) = ? 0.378

====

conditionDetails: in cyclohexane, 291.15 K
measuredAttribute: solubility (mole fraction)
Could you keep your reply to the number by itself?

Field request: solubility (mole fraction) | item: Cc1nc(CCl)nc2ccccc12 0.0361

Hey, just so you know, these numbers are from BigSolDB 2.1.
